Answer each item with its documented pIC50.
experimental-system: human TLR9 (Homo sapiens, UniProt Q9NR96)
Construct: endogenous in cells; host or cells: primary human B cells (CD19 microbeads) from buffy coats of healthy donors
Sequence (Q9NR96 26-1032): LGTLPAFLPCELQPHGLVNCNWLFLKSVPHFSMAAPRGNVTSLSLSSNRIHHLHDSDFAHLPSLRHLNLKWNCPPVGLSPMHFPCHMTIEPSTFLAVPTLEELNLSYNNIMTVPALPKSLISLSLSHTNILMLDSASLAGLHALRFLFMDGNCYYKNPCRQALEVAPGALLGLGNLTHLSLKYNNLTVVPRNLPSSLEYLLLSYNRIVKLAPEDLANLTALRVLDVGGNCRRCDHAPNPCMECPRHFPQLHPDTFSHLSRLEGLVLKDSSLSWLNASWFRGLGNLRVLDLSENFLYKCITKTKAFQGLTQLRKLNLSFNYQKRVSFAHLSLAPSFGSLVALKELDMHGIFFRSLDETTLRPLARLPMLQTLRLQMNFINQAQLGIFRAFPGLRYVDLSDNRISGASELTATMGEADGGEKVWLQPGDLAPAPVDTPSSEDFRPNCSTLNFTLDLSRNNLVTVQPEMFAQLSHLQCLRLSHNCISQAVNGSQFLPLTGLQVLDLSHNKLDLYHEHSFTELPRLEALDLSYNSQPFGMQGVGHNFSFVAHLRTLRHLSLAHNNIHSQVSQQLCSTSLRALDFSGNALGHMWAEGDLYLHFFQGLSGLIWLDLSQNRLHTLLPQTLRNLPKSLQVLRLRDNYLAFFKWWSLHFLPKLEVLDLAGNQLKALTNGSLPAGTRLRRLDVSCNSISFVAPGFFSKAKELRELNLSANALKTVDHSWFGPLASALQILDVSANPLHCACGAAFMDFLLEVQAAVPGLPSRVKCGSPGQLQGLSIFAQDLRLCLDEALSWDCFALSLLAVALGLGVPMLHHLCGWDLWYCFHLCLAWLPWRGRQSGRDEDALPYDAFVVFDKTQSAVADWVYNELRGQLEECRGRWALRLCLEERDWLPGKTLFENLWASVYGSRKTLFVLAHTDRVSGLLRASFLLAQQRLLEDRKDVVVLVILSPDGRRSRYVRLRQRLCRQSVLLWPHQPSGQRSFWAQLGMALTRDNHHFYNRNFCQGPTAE
procedure-summary: Inhibition of human TLR9 in human B cells (IL-6 ELISA)
Type: cell-based
particulars: human B cells, agonist 1018 ISS 1 μM, IL-6 readout, 48 hours; range about 0.01 to 10 μM; read-out: Human TLR9 IC50
pIC50: −log10 of the molar value.

Query block: Which pIC50 value belongs to Cc1nnc(N2CCC(C(=O)NCCCN(C)C)CC2)c2nn(C3CCOCC3)c(C)c12 [compound 25] ?
Result block: < 5.00

Query block: I am curious: what pIC50 value has been reported for Cc1ccc(-n2nc3c(N4CCC(C(=O)NCCCc5ccccc5)CC4)nnc(C)c3c2C)cc1 [2-6] ?
Result block: < 5.00

Query block: For the molecule shown here, Cc1nnc(N2CCC(C(=O)NCCCN(C)C)CC2)c2nn(-c3cccnc3)c(C)c12 [compound 23] , give the reported pIC50.
Result block: < 5.00
